TEST TARGET: LRRK2 G2019S (Homo sapiens, UniProt Q5S007, G2019S)
Sequence (Q5S007 whole entry G2019S): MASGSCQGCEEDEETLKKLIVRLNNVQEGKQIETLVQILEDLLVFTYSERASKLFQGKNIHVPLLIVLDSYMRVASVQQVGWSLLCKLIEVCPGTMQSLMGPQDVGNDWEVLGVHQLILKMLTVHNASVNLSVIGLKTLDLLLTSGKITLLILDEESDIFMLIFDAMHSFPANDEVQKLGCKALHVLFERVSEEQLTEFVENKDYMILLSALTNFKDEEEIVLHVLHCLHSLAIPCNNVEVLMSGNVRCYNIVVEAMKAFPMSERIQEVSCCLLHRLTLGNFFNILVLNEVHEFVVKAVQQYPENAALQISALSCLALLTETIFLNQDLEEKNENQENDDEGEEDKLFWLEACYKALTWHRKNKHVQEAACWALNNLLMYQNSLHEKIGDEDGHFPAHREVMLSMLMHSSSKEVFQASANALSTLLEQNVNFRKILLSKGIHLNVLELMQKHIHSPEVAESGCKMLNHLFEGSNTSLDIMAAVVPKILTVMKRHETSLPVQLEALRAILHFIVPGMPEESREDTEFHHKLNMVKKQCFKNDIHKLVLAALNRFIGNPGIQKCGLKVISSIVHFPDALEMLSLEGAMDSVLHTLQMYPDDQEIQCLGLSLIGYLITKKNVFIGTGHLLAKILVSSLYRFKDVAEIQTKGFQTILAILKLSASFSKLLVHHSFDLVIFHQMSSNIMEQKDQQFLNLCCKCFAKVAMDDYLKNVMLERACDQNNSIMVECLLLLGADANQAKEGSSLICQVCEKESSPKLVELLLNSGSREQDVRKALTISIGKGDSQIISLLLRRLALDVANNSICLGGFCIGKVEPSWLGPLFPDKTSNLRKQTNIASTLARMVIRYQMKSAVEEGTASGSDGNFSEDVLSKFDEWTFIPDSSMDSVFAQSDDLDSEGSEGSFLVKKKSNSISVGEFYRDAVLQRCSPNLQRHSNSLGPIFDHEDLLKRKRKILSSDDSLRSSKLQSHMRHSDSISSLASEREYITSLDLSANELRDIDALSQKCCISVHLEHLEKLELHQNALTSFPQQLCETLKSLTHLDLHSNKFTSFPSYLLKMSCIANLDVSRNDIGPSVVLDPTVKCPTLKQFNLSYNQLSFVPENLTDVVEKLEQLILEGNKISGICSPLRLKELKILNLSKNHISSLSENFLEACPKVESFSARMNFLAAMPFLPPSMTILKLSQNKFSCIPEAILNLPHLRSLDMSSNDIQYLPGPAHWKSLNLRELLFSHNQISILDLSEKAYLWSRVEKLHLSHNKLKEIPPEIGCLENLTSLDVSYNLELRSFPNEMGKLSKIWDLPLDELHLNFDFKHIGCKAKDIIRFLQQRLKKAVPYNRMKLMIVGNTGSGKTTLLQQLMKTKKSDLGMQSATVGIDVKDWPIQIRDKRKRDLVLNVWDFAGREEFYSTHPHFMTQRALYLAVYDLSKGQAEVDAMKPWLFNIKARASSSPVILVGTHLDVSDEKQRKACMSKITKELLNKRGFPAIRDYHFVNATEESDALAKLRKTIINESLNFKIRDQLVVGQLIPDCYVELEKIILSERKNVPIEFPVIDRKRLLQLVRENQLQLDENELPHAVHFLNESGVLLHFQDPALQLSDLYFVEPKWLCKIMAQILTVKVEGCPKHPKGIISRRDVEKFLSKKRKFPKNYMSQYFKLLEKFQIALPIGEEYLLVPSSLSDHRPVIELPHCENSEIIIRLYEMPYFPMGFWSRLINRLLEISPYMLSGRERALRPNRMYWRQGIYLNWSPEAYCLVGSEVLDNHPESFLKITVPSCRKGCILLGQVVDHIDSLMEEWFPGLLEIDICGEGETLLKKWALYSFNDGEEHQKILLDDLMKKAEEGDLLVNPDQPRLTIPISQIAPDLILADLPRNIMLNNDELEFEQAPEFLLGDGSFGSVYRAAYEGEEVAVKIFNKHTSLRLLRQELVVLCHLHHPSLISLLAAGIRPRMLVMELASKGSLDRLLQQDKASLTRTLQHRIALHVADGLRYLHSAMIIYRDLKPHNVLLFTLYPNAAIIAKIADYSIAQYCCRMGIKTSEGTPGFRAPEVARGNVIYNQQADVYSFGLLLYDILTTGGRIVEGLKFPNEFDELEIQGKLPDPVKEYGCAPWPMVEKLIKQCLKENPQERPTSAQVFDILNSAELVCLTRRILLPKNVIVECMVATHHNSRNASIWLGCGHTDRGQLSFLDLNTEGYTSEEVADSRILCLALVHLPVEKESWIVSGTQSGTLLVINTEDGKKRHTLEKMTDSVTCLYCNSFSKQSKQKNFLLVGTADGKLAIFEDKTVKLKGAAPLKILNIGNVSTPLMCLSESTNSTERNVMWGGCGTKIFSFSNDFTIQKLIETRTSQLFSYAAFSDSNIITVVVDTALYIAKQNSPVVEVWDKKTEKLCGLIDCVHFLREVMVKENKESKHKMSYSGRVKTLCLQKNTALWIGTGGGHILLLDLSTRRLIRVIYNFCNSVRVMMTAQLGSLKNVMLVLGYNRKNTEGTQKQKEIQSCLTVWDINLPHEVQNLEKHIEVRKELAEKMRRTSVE
PROTOCOL: LRRK2 G2019S Km ATP LanthaScreen assay
Assay type: biochemical
PARTICULARS: read-out: LRRK2 pIC50 (converted)
RESULT TYPE: IC50 (nM)
Supply the numeric figure in nM, leaving out any unit text.

> print(dat)
                                   molecule                               test.target  result.type  quantitative.readout
1  N#CC1(c2ccc3cnc(NC(=O)[C@@H]4C[C@@H](O)[C@H](F)C4)cc3c2)CC12CC2 (single isomer, unassigned)  LRRK2 G2019S (Homo sapiens, UniProt Q5S007, G2019S)         IC50                  20.4
2  CC1(N2CCC(c3cc4cc(NC(=O)C5CC5C#N)ncc4cc3Cl)CC2)COC1 (centres unmarked)  LRRK2 G2019S (Homo sapiens, UniProt Q5S007, G2019S)         IC50                  8.32
3  N#CC1(c2ccc3cnc(NC(=O)C4CCN(CC(F)(F)F)C4)cc3c2)CC12CC2 (centres unmarked) [Ex-2.43]  LRRK2 G2019S (Homo sapiens, UniProt Q5S007, G2019S)         IC50                  31.6

Q: So what does the record say about IC50 for CC1(N2CCC(c3cc4cc(NC(=O)C5CC5c5cncnc5)ncc4cc3Cl)CC2)COCC1O (single isomer, unassigned) [Ex-4.36] ?
A: 0.562

Q: So what does the record say about IC50 for CC1(N2CCC(c3cc4cc(NC(=O)C5CC5C(F)F)ncc4cc3Cl)CC2)COCC1O (single isomer, unassigned) [Ex-10.10] ?
A: 15.5

Q: So what does the record say about IC50 for CC1C(C(=O)Nc2cc3cc(C4CCN(C5(C)COCC5O)CC4)c(Cl)cc3cn2)C1c1ccccn1 (single isomer, unassigned) [Ex-4.53] ?
A: 3.98

Q: So what does the record say about IC50 for COC1CC(C(=O)Nc2cc3cc(C4CCN(C5COC5)CC4)c(Cl)cc3cn2)C1 (racemic) ?
A: 2.63

Q: So what does the record say about IC50 for N#CC1(c2ccc3cnc(NC(=O)C4CC45CCOC5)cc3c2)CC12CC2 (centres unmarked) [Ex-2.64] ?
A: 10.5

Q: So what does the record say about IC50 for CC1C(C(=O)Nc2cc3cc(C4CCN(C5(C)COCC5O)CC4)c(Cl)cc3cn2)C12CCOCC2 (single isomer, unassigned) [Ex-10.7] ?
A: 44.7

Q: So what does the record say about IC50 for CC1(N2CCC(c3cc4cc(NC(=O)C5CC(c6ccccn6)C5)ncc4cc3Cl)CC2)COCC1O (single isomer, unassigned) [Ex-4.75] ?
A: 100

Q: So what does the record say about IC50 for Cn1cc(C2CC2C(=O)Nc2cc3cc(C4CCN(C5(C)COCC5O)CC4)c(Cl)cc3cn2)cn1 (centres unmarked) [Ex-2.36] ?
A: 0.55

Q: So what does the record say about IC50 for COC1CC(C(=O)Nc2cc3cc(C4(C#N)CC45CC5)ccc3cn2)C1 (single isomer, unassigned) [Ex-1.3] ?
A: 0.631

Q: So what does the record say about IC50 for CCC(=O)N1CCC(C(C)C(=O)Nc2cc3cc(C4(C#N)CC45CC5)ccc3cn2)CC1 (centres unmarked) [Ex-2.113] ?
A: 28.2

Q: So what does the record say about IC50 for O=C(Nc1cc2cc(C3CCN(C4COC4)CC3)c(Cl)cc2cn1)C1CC12CCOCC2 (single isomer, unassigned) [Ex-9.7] ?
A: 1.95
